# TARGET_UNDER_TEST: UniProtKB P10632
# Sequence (P10632 whole entry): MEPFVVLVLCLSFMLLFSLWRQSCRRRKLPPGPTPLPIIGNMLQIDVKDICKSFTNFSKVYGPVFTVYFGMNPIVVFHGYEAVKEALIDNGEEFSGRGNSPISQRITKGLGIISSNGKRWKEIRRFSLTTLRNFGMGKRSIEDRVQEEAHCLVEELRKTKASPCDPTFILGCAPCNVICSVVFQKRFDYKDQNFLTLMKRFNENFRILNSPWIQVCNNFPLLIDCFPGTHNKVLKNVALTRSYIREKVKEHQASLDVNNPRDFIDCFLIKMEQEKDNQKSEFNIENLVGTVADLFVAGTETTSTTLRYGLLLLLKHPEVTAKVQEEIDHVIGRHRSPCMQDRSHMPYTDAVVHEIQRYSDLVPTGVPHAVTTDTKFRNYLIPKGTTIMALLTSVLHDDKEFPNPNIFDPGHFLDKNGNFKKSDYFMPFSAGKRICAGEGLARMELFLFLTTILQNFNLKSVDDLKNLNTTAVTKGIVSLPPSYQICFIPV
# ASSAY_METHOD_TEXT: Reversible inhibition of CYP2C8 in human liver microsomes after 5 mins by LC-MS/MS analysis
# Type: ADME
pKi: −log10 of the molar value.

{"MOL": "Cn1c(C2(NC(=O)c3ccc4c(C5CCCC5)c(-c5ncc(Br)cn5)n(C)c4c3)CCC2)nc2ccc(/C=C/C(=O)O[C@@H]3O[C@H](C(=O)O)[C@@H](O)[C@H](O)[C@H]3O)cc21", "TARGET_UNDER_TEST": "UniProtKB P10632", "pKi": 7.66}

====

# ASSAY_METHOD_TEXT: In vivo drug metabolism in human assessed as CYP2C8-mediated glucuronide conjugate formation in urine by LC-MS/MS analysis
# Format: ADME, organism-based
EXPERIMENTAL_READOUT: Drug metabolism

{"COMPOUND": "CC(C)Cc1ccc(C(C)C(=O)O)cc1 (stereo unspecified)", "EXPERIMENTAL_READOUT": "Drug metabolism", "MEASUREMENT": "10 to 15 %ID"}
